TARGET OF ASSAY: human CD33 variant Y49V (human, UniProt P20138 18-364)
Sequence (P20138 18-364 Y49V limits assumed): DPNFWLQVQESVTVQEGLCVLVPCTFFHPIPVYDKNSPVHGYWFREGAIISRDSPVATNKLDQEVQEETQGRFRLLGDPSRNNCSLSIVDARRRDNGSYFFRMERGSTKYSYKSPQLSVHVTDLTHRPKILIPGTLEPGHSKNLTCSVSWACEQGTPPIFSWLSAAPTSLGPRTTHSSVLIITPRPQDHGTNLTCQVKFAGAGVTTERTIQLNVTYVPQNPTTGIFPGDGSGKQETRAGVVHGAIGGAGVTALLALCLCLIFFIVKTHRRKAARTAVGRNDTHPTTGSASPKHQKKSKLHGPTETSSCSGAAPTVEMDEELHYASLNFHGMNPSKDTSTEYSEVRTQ
TEST: flow cytometry, IgG on cells expressing the mutant
READOUT: Mean % WT Binding

Refmab #4 (antibody, human IgG1, V domains shown, Tested in IgG format; human IgG1 Fc silent (PG-LALA)) VH: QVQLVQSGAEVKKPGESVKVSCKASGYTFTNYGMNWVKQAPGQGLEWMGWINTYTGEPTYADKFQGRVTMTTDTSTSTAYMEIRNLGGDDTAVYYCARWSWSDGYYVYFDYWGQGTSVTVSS VL: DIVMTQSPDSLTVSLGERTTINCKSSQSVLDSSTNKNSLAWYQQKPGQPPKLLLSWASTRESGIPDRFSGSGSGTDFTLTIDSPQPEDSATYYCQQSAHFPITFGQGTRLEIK ... 46.9 % of WT

Prompt: Give the measured Mean % WT Binding of Refmab #3 (antibody, human IgG1, V domains shown, Tested in IgG format; human IgG1 Fc silent (PG-LALA)) VH: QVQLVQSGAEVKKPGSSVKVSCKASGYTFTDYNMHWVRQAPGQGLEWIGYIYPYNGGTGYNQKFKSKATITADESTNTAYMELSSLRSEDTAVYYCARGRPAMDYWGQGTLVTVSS VL: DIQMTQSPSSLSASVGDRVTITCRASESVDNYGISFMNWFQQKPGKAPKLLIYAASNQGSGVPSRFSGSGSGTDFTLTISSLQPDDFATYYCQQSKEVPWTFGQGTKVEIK .
Response: 106 % of WT

Prompt: Then this binder: Refmab #1 (antibody, human IgG1, V domains shown, Tested in IgG format; human IgG1 (Absolute Antibody hP67.6, Cat. No. Ab00283-10.0); also called hP67.6) VH: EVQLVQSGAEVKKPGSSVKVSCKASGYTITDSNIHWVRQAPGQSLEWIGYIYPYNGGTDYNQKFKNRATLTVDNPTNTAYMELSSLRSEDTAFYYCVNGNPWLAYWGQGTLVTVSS VL: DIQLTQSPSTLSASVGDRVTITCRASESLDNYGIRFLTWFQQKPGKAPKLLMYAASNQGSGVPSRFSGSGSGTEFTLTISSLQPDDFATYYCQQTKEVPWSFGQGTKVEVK
Response: 101 % of WT

Prompt: Same for Refmab #2 (antibody, human IgG1, V domains shown, Tested in IgG format; human IgG1 Fc silent (PG-LALA)) VH: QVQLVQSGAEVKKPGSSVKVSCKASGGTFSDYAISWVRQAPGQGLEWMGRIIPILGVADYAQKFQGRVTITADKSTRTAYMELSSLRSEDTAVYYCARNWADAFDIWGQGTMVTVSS VL: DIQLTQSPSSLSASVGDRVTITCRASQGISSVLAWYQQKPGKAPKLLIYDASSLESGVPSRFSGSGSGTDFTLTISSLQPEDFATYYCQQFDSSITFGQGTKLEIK
Response: 90.4 % of WT
